- assay_target: recombinant human HDAC5 (Homo sapiens, UniProt Q9UQL6)
- Sequence (Q9UQL6 whole entry, canonical isoform): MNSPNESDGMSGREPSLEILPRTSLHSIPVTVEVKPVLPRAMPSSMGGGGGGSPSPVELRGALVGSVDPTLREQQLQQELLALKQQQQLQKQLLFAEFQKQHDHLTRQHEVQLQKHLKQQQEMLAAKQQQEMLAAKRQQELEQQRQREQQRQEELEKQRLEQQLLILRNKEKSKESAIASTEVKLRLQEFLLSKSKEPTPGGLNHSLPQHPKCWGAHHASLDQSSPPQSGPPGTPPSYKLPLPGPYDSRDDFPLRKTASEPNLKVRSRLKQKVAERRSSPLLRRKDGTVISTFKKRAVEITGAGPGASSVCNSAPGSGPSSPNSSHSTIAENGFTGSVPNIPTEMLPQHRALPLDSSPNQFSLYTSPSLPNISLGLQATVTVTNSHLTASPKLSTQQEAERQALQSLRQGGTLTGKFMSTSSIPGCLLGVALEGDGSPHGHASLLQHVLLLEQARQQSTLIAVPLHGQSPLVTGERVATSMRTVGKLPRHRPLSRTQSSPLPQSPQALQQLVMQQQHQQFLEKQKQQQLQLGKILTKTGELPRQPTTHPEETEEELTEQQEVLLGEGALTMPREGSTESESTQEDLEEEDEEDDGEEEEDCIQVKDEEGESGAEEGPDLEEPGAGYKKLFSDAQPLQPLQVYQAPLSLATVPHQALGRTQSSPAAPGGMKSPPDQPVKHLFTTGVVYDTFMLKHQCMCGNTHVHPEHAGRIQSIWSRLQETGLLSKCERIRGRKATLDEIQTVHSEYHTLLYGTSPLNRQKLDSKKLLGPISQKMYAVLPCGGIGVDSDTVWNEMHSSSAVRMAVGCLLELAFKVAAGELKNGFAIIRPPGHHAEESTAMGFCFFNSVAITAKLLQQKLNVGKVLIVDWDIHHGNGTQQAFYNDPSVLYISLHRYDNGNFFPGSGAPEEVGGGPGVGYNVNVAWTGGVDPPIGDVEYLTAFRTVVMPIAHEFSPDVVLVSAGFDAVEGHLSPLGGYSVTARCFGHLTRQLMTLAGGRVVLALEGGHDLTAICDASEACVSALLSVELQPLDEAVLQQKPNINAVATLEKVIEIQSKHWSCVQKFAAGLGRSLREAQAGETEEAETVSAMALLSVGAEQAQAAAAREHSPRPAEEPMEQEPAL
- test_details: HDAC isoform inhibition fluorogenic assay (BPS Bioscience kit)
property_label: IC50
Please answer in the form of a number followed by its unit of measurement.

Ask: Return reported IC50; argument: C[C@H](CN(C)Cc1ccccc1)NC(=O)c1ccc(-c2noc(C(F)(F)F)n2)cc1F [NT376]
Reply: 2.85 nM

----------
- assay_target: recombinant human HDAC4 (Homo sapiens)
- Sequence (P56524 whole entry, canonical isoform): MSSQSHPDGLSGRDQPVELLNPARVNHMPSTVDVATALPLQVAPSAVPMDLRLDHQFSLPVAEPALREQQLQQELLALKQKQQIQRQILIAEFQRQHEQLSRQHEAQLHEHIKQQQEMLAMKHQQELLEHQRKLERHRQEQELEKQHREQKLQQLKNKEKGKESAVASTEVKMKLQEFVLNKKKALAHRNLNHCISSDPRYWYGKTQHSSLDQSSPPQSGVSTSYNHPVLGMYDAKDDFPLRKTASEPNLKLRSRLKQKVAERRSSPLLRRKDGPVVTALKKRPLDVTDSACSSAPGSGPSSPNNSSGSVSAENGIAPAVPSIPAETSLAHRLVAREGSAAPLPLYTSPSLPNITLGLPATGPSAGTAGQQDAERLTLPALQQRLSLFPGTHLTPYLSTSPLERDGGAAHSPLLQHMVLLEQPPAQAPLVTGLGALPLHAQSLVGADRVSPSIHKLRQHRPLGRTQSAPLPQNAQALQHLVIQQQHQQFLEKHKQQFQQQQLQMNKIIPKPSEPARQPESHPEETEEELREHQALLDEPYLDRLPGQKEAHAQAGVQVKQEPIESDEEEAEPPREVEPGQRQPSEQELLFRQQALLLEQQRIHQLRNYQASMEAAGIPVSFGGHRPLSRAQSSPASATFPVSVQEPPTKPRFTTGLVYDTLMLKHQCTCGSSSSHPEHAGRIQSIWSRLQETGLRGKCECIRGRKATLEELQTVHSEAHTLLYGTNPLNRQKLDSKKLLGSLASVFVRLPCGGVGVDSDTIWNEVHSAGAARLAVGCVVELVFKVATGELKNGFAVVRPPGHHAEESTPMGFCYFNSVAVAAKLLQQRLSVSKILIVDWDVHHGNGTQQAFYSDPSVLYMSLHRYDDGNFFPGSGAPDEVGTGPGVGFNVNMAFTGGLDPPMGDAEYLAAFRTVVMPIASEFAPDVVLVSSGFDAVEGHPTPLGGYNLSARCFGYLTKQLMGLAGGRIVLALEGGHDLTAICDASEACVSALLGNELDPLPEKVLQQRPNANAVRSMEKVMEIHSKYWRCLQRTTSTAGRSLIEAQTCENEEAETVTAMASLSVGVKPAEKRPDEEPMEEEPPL
- test_details: HDAC isoform inhibition fluorogenic assay (BPS Bioscience kit)
property_label: IC50

Ask: Return reported IC50; argument: C[C@H](CN(C)Cc1ccccc1)NC(=O)c1ccc(-c2noc(C(F)(F)F)n2)cc1F [NT376]
Reply: 1.26 nM
